test system: SEM cells; test: cell viability relative to DMSO control; higher = less cytotoxic; settings: HPLM + 10% dialyzed FBS; 48 h; 5.12 µM
assay-endpoint: cell viability (%)
Numbers only here, please. The scale is %.

Param item: c1ccc2c(-c3cnn4cc(-c5ccc(N6CCNCC6)cc5)cnc34)ccnc2c1 ; param system: SEM cells; output cell viability: 2.9

Param item: Cc1cnc(Nc2ccc(OCCN3CCCC3)cc2)nc1Nc1cccc([S+](=O)([O-])NC(C)(C)C)c1 ; param system: SEM cells; output cell viability: 96.1

Param item: N=C(N)c1ccc(OCCCCCOc2ccc(C(=N)N)cc2)cc1 ; param system: SEM cells; output cell viability: 106

Param item: COc1ccc(-c2c(-c3ccc(O)cc3O)n[nH]c2C)cc1 ; param system: SEM cells; output cell viability: 86

Param item: C[C@@H]1O[C@@H](O[C@H]\2CC[C@]\3(C)[C@@H]4CC[C@]5(C)[C@@H](CC[C@@]5(O)[C@H]4CCC3=C2)C/6=C/OC(=O)/C=C6)[C@H](O)[C@H](O)[C@@H]1O ; param system: SEM cells; output cell viability: 8.87

Param item: NC12CC3CC(CC(C3)C1)C2 ; param system: SEM cells; output cell viability: 98.1

Param item: CC1=C(C)C2=C(S1)[N]3C(=NN=C3[C@H](CC(=O)OC(C)(C)C)/N=C2/C4=CC=C(Cl)C=C4)C ; param system: SEM cells; output cell viability: 6.74

Param item: CC(C)[C@@H](N(CCCN)C(=O)C1=CC=C(C)C=C1)C/2=C(\CC3=CC=CC=C3)C(=O)C4=C(O2)C=C(Cl)C=C4 ; param system: SEM cells; output cell viability: 25.7

Param item: CC(C)c1ccc2oc3nc(N)c(C(=O)O)cc3c(=O)c2c1 ; param system: SEM cells; output cell viability: 106

Param item: Cc1c(OCC(F)(F)F)ccnc1C[S+]([O-])c1nc2ccccc2[nH]1 (stereo unspecified) ; param system: SEM cells; output cell viability: 106

Param item: COc1ccc2cc(-c3[nH]c(-c4ccc([S+](C)[O-])cc4)nc3-c3ccncc3)ccc2c1 (stereo unspecified) ; param system: SEM cells; output cell viability: 126

Param item: CN(C)c1nc(N(C)C)nc(N(C)C)n1 ; param system: SEM cells; output cell viability: 97.6

Param item: CNC(=O)c1c(F)cccc1Nc1nc(Nc2cc3c(cc2OC)CCN3C(=O)CN(C)C)nc2[nH]ccc12 ; param system: SEM cells; output cell viability: 22

Param item: CCc1cc(/C(C)=N/OCc2ccc(C3CCCCC3)c(C(F)(F)F)c2)ccc1CN1CC(C(=O)O)C1 ; param system: SEM cells; output cell viability: 99.8

Param item: O=C1[O][Pt]2([NH]C3CCCCC3[NH]2)[O]C1=O (stereo unspecified) ; param system: SEM cells; output cell viability: 27

Param item: CC1OC(OC/2=C(/OC3=C(C(=CC(=C3)O)O)C2=O)C4=CC=C(O)C=C4)C(O)C(OC(C)=O)C1OC(C)=O (stereo unspecified) ; param system: SEM cells; output cell viability: 106

Param item: CNC(=O)c1cc(Oc2ccc(NC(=O)Nc3cc(C(C)(C)C)nn3-c3ccc4ncccc4c3)c(F)c2)ccn1 ; param system: SEM cells; output cell viability: 61.7

Param item: Cn1cc(-c2ccncc2)c(-c2ccc(OCc3ccc4ccccc4n3)cc2)n1 ; param system: SEM cells; output cell viability: 125

Param item: N/C(=N\C(=O)c1nc(Cl)c(N)nc1N)NCc1ccccc1 ; param system: SEM cells; output cell viability: 98.8

Param item: CN(C(=O)c1ccc(F)cc1C(F)(F)F)C1CCN(c2nnc(-c3ccnn3C)c3ccccc23)CC1 ; param system: SEM cells; output cell viability: 79

Param item: Nc1ccc([S+](=O)([O-])Nc2ccccn2)cc1 ; param system: SEM cells; output cell viability: 88.5
